I'd appreciate it if you could supply activation values for the items below.
molecular target: Oxytocin receptor (Homo sapiens); test: oxytocin receptor activation by calcium flux – fluorescence, CHO-OTR cells, Fluo-8 calcium, primary screen (AID 2435); conditions: Fluo-8 calcium fluorescence, at 3 µM, stronger effect = higher value, normalized: DMSO 0%, oxytocin 100%;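 note: peak over basal fluorescence ratio from a 100 s FLIPR kinetic read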
In all, about 320,000 compounds went through this assay and about 1,000 (0.31%) were called active. The sample holds actives, similar compounds and a random draw of the others, so the mix is not that of the screen.
The figure you give is taken to be in %; do not add the unit.

Please fill in: activation reported for O=C(CCCN=C1NS(=O)(=O)c2ccccc21)OCC(=O)c1ccc(F)c(F)c1 = 30.8

Please fill in: activation reported for COc1ccc(C(=O)NNC(=O)c2cc(C)[nH]n2)cc1 = -1.68

Please fill in: activation reported for O=C(OCCN=C1NS(=O)(=O)c2ccccc21)c1cccc([N+](=O)[O-])c1 = 1.88

Please fill in: activation reported for NC(=O)C1CCN(C(=O)c2cn(-c3ccccc3)nc2-c2cccnc2)CC1 = 1.05

Please fill in: activation reported for COc1cc(NC(=O)CN2C(=O)NC(C)(c3ccc(OC(F)F)cc3)C2=O)cc(OC)c1OC (stereo unspecified) = 2.87

Please fill in: activation reported for CCOC(=O)N/N=C1\CC(C)S(=O)(=O)c2ccc(Cl)cc21 (stereo unspecified) = -2.06

Please fill in: activation reported for Cn1c(=O)c(=O)n(C)c2cc(S(=O)(=O)CCC(=O)N3CCCCC3)ccc21 = -0.07

Please fill in: activation reported for OCCCC1CCCCN1Cc1nc(Cc2ccccc2Cl)no1 (stereo unspecified) = 1.04

Please fill in: activation reported for CCOc1ncccc1C(=O)NCCc1ccc(OC)cc1 = -1.34

Please fill in: activation reported for COc1ccccc1NC(=O)/C=C/C(N)=O = 0.46

Please fill in: activation reported for Cc1ccc(-c2nn(-c3ccccc3)cc2C(=O)NC2CCC(O)CC2)cc1 (stereo unspecified) = 0.66

Please fill in: activation reported for CC1CCN(CCC(=O)Nc2ccccc2)CC1 = -0.16

Please fill in: activation reported for CCc1ccc(C2N3CC4([N+](=O)[O-])CN2CC([N+](=O)[O-])(C3)C4(C)C)cc1 (stereo unspecified) = -1.26

Please fill in: activation reported for N#CC1(NC(=O)COC(=O)CCN=C2NS(=O)(=O)c3ccccc32)CCCCC1 = 0.35

Please fill in: activation reported for COc1cc(C(=O)NC2CCN(C)CC2)ccc1Nc1ncc2c(n1)N(C1CCC(O)CC1)CCC(=O)N2C (stereo unspecified) = 0.79

Please fill in: activation reported for CC1CCN(c2c(NCc3ccc(C(=O)NCc4ccccc4)cc3)c(=O)c2=O)CC1 = 0.21

====

target: Oxytocin receptor (Homo sapiens) (UniProt P30559); experiment: oxytocin receptor activation by calcium flux – fluorescence, CHO-OTR cells, Fluo-8 calcium, primary screen (AID 2435); conditions: Fluo-8 calcium fluorescence, at 3 µM, normalized: DMSO 0%, oxytocin 100%;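 note: peak over basal fluorescence ratio from a 100 s FLIPR kinetic read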
Sequence (P30559 whole entry, looked up): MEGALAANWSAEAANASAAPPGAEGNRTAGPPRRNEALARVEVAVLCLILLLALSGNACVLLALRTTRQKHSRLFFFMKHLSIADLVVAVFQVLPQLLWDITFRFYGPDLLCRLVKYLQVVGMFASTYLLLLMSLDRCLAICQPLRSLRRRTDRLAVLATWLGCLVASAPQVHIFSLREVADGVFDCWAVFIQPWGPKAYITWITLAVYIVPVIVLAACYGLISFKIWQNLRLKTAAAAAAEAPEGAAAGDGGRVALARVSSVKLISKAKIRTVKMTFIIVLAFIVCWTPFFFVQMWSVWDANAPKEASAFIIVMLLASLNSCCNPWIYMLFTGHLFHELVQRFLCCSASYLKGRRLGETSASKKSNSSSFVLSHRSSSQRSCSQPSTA
The whole screen tested about 320,000 compounds, of which about 1,000 (0.31%) were called active.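 How the source made its calls: active means activation above the mean of all tested compounds plus 3 SD, cutoff set per screening run (cut at about 20% in these data); inactive means the rest.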 The sample holds actives, similar compounds and a random draw of the others, so the mix is not that of the screen.
Your reply should match one of these outcome classes. active, inactive

Exam item: Assay outcome for Cc1ccccc1CCNC(=O)C1CCC(=O)N(Cc2ccc(Cl)cc2)C1 (stereo unspecified) : what was it?
Marked response: inactive

Exam item: Assay outcome for O=C(/C=C/c1ccc2c(c1)OCCO2)c1ccc(O)cc1 : what was it?
Marked response: inactive

Exam item: Assay outcome for COc1ccc(CN2C(=O)CC(Cc3ccc(C)cc3)C2=O)cc1OC (stereo unspecified) : what was it?
Marked response: inactive

Exam item: Assay outcome for Cc1nc(-c2ccccc2)cn2c1nc1ccccc12 : what was it?
Marked response: inactive

Exam item: Assay outcome for COc1ccc(C(=O)NNC(=S)NC(=O)c2ccccc2[N+](=O)[O-])cc1 : what was it?
Marked response: inactive

Exam item: Assay outcome for CCOC(=O)C1=C(NC(=S)NC(=O)c2ccccc2)c2ccccc2CC1(C)C : what was it?
Marked response: active

====

target: Oxytocin receptor (Homo sapiens) (UniProt P30559); test: oxytocin receptor activation by calcium flux – fluorescence, CHO-OTR cells, Fluo-8 calcium, primary screen (AID 2435); conditions: Fluo-8 calcium fluorescence, at 3 µM, normalized: DMSO 0%, oxytocin 100%;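 note: peak over basal fluorescence ratio from a 100 s FLIPR kinetic read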
Out of some 320,000 compounds screened, about 1,000 (0.31%) were called active.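 How the source made its calls: active means activation above the mean of all tested compounds plus 3 SD, cutoff set per screening run (cut at about 20% in these data); inactive means the rest.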 Only a selection was taken, and actives are over-represented in it overall.
Your reply should match one of these outcome classes. label 1 for active, label 0 for inactive

Exam item: Assay outcome for CN1C(=O)c2cccc3c(N)ccc(c23)C1=O : what was it?
Marked response: label 1

Exam item: Assay outcome for Cc1c(Br)c([N+](=O)[O-])nn1CC(=O)Nc1sc2c(c1C(=O)OC(C)C)CCC(C)C2 (configuration not stated) : what was it?
Marked response: label 0

Exam item: Assay outcome for Cn1c2ccccc2c(=O)c2c(=O)n(Cc3ccco3)c(COc3ccccc3)nc21 : what was it?
Marked response: label 0

Exam item: Assay outcome for CC(=O)Nc1ccccc1Sc1ccc2c3c(cccc13)C(=O)N(c1ccc(C)cc1)C2=O : what was it?
Marked response: label 0

Exam item: Assay outcome for COc1ccc(NS(=O)(=O)c2ccc(NC(=S)NC(=O)CC(C)C)cc2)cc1 : what was it?
Marked response: label 1

Exam item: Assay outcome for O=C(NCc1cccnc1)C12CC3CC(CC(C3)C1)C2 : what was it?
Marked response: label 0

Exam item: Assay outcome for CCOC(=O)CN(C)S(=O)(=O)c1ccc(-c2cc(C(=O)OC)sc2C(F)(F)F)cc1 : what was it?
Marked response: label 0

====

biological target: Oxytocin receptor (Homo sapiens) (UniProt P30559); assay: oxytocin receptor activation by calcium flux – fluorescence, CHO-OTR cells, Fluo-8 calcium, primary screen (AID 2435); details: Fluo-8 calcium fluorescence, at 3 µM, normalized: DMSO 0%, oxytocin 100%;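 note: peak over basal fluorescence ratio from a 100 s FLIPR kinetic read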
Out of some 320,000 compounds screened, about 1,000 (0.31%) were called active.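 The calls were made as follows: active = activation above the mean of all tested compounds plus 3 SD, cutoff set per screening run (cut at about 20% in these data); inactive = the rest.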 The sample as a whole holds a higher share of actives than the screen did.
Your reply should match one of these outcome classes. active, inactive

Exam item: Assay outcome for O=C(C1CCCO1)N(Cc1ccccc1)c1ccccc1 (configuration not stated) : what was it?
Marked response: inactive

Exam item: Assay outcome for COc1cccc(CNC(=O)c2nnn(CC(=O)Nc3cc(Cl)ccc3C)c2N)c1 : what was it?
Marked response: inactive

Exam item: Assay outcome for CCN(CC)c1ccc(C(=O)Nn2c(C)nc3ccccc3c2=O)cc1 : what was it?
Marked response: inactive

Exam item: Assay outcome for O=C(CCCN1CCc2[nH]c3ccc(F)cc3c2C1)c1ccc(F)cc1 : what was it?
Marked response: active

Exam item: Assay outcome for CCc1ccc(NC(=O)Cn2nnc(C(=O)NCc3ccc(OC)cc3)c2N)cc1 : what was it?
Marked response: inactive

Exam item: Assay outcome for COc1ccc(CNC(=O)c2nnn(CC(=O)Nc3cc(C)cc(C)c3)c2N)cc1 : what was it?
Marked response: inactive

Exam item: Assay outcome for CC1CCCN(CCCNC(=O)CN2C(=O)COc3ccc(S(=O)(=O)N4CCOCC4)cc32)C1 (configuration not stated) : what was it?
Marked response: inactive

Exam item: Assay outcome for CCOc1ccc(Cn2nnc(C(=O)NCc3ccccc3)c2N)cc1 : what was it?
Marked response: active

Exam item: Assay outcome for O=C(Nc1ccc(O)cc1)c1ccc(NC(=O)c2ccco2)cc1 : what was it?
Marked response: inactive

Exam item: Assay outcome for Cc1cc2nc3c(=O)n(Cc4ccccc4)c(=O)[nH]c3nc2cc1N : what was it?
Marked response: active

Exam item: Assay outcome for O=C(NCc1ccco1)/C(=C/c1cccc([N+](=O)[O-])c1)NC(=O)c1ccco1 : what was it?
Marked response: inactive

Exam item: Assay outcome for N#CCCN(C(=O)COC(=O)c1ccc2c(c1)OCCO2)c1ccccc1 : what was it?
Marked response: inactive

Exam item: Assay outcome for C=CCN(C(=O)Nc1ccc2oc(C)nc2c1)c1ccccc1 : what was it?
Marked response: inactive

Exam item: Assay outcome for COc1ccc(N2CCN(C(=O)[C@@H](NC(=O)c3cc(OC)cc(OC)c3)C(C)C)CC2)cc1 : what was it?
Marked response: inactive

Exam item: Assay outcome for COC(=O)CSc1nc2ccccc2c(=O)n1Cc1ccccc1 : what was it?
Marked response: inactive

Exam item: Assay outcome for Cn1c(C(=O)OC(C(=O)NC2CCCCC2)c2ccccn2)cc2sccc21 (configuration not stated) : what was it?
Marked response: inactive

Exam item: Assay outcome for COc1ccc(Cn2c(O)c(/C=C3/C=CC=N3)c(=O)[nH]c2=O)cc1 : what was it?
Marked response: inactive

====

target: Oxytocin receptor (Homo sapiens) (UniProt P30559); assay: oxytocin receptor activation by calcium flux – fluorescence, CHO-OTR cells, Fluo-8 calcium, primary screen (AID 2435); conditions: Fluo-8 calcium fluorescence, at 3 µM, normalized: DMSO 0%, oxytocin 100%;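 note: peak over basal fluorescence ratio from a 100 s FLIPR kinetic read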
Hit rate of the full screen: of about 320,000 compounds, about 1,000 (0.31%) were called active.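 How the source made its calls: active means activation above the mean of all tested compounds plus 3 SD, cutoff set per screening run (cut at about 20% in these data); inactive means the rest.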 This is one part of a sample in which actives are shown more often than they occur.
Your reply should match one of these outcome classes. t (active), f (inactive)

Exam item: Assay outcome for COCCC(=O)Nc1ccc2c(c1)CN(C(=O)CCOC)CC2 : what was it?
Marked response: f

Exam item: Assay outcome for CCc1noc(C)c1C(=O)NNC(=O)c1ccc(F)cc1 : what was it?
Marked response: f

Exam item: Assay outcome for CCCCCCCCCCCCN1C(=O)CSC1c1cccnc1 (centres undefined) : what was it?
Marked response: f

Exam item: Assay outcome for COc1ccc(C(=O)NC(=S)NNC(=O)c2c(-c3ccccc3)noc2C)cc1 : what was it?
Marked response: t
